# Assay details: yeast display, Sf9 membrane polyspecificity reagent, FACS + sequencing; frameworks hold sequencing errors
Measured metric: polyreactivity (PSR sort gate)

Consider the reported polyreactivity (PSR sort gate) for these sequences:
{"Sequence code": "QVQLVESGGGLVQAGGSLRLSCAASGRTFRANTMGWYRQAPGKERELVAAISDRGGSTYYADSVKGRFTISRDNAKNTVYLQMNSLKPEDTAVYYCAARNTPAQLDYWGQGTQVTVSS", "polyreactivity (PSR sort gate)": "low polyreactivity"}
{"Sequence code": "QVQLVESGGGLVQAGGSLRLSCAASGRIFDLNAMGWYRQAPGKERELVASITTSTGSTYYADSVKGRFTISRDNAKNTVYLQMNSLKPEDTAVYYCAADKSTHPFPSDPGYGYWGQGTQVTVSS", "polyreactivity (PSR sort gate)": "low polyreactivity"}
{"Sequence code": "QVQLVESGGGLVQAGGSLRLSCAASGFTFKYNAMGWYRQAPGKERELVASISSGSTNYADSVKGRFTISRDNAKNTVYLQMNSLKPEDTAVYYCAASVSRGKRFRYGYVFKMDYWGQGTQVTVSS", "polyreactivity (PSR sort gate)": "low polyreactivity"}
{"Sequence code": "QVQLVESGGGLVQAGGSLRLICAASAFTIRRYAMGWYRQARGKERELVAAINWNGDTTYYADSVKGRFTISSDNAKNTVYLQMNSLKPEDTAVYYCATSDYYYDYWGQGTQVTVSS", "polyreactivity (PSR sort gate)": "high polyreactivity"}

Here is the next item to consider.
Give polyreactivity (PSR sort gate) for the following sequence: `QVQLVESGGGLVQAGGSLRLSCAASGITFRWYAMGWSRQAPGKERELVAAIDGGGSTYYADSVKGRFTISRDNAKNTVYLQMNSMKPEDTAVYYCAADYGRRYHTPYGWDYYYWGQGTQVTVSS` high polyreactivity

---

# Assay details: yeast display, Sf9 membrane polyspecificity reagent, FACS + sequencing; frameworks hold sequencing errors
Measured metric: polyreactivity (PSR sort gate)

Consider the reported polyreactivity (PSR sort gate) for these sequences:
{"Sequence code": "QVQHVESGGGLVQAGGSLRLSCAASGSTFSANAMGWYRQAPGKERELVAVIRRGGSTTYADSVKGRFTISRDNAKNTVYLQMNSLKPEDTAVYYCNARVTLGRPLFTYLVRYEYWGQGTQVTVSS", "polyreactivity (PSR sort gate)": "high polyreactivity"}
{"Sequence code": "QVQLVESGGGLVQAGGSLRLSCAASGSIFDWNALGWYRQAPGKERELVASITGSGGGTNYADSLKGRFTISRDNAKNTVYFQMNSLNPEDTAVYFCNADGLNLDGHEYWGQATQVTVSS", "polyreactivity (PSR sort gate)": "low polyreactivity"}
{"Sequence code": "QVQLVESGGGLVQAGGSLRLSCAASGTTISNYAMGWYRQAPGKERELVAGIDWSGGSTYYADSVKGRFTISRDNAKNTVYLHMNSLKPEDTAVYYCAKRVWYHGRKLRGYYWGQGTQVTVSS", "polyreactivity (PSR sort gate)": "low polyreactivity"}
{"Sequence code": "QVQLVESGGGLVQAGGSHRLSCAASGNTFPLYAMGWYRQAPGKERELVAAISQRGGSTYYADSVKGRFTISRDNAKNTVYLQMNSLKPEDTAVYYCAATWADEYQYRRYYYWGHGTQVTVSS", "polyreactivity (PSR sort gate)": "high polyreactivity"}

Give polyreactivity (PSR sort gate) for the following sequence: `QVQLVESGGGLVQAGGSLRLSCAASGRISVRIYAMGWYRQAPGKERELVAIIARSGGSTYYADSVKGRFTISRDNAKHTVYLPMNSLKPADTAVYYCAAGYRTRRGLGYYYWGQGTQVTVSS` high polyreactivity

---

# Assay details: yeast display, Sf9 membrane polyspecificity reagent, FACS + sequencing; frameworks hold sequencing errors
Measured metric: polyreactivity (PSR sort gate)

{"Sequence code": "QFQLVESGGGLVQAGGSLRLSCAASGSIFFIYAMGWYRQAPGKERELVATITSGGSTYYADSVKGRFTISRDNAKNTVYLQMNSLKPEDTAVYYCAVDEYFAFDYWGQGTQVTVSS", "Measured metric": "polyreactivity (PSR sort gate)", "Observed": "low polyreactivity"}
{"Sequence code": "QVQLVESGGGLVQSGGSLRLSCAASGSTSTSYVMGWYRQAPGKERELVAVITLRSGVTYYADSVKARFTISRDNPKYTVYLQMNSLKAEDTAVYYCNAATVVYTRVWRGYWGQGTHVTVSS", "Measured metric": "polyreactivity (PSR sort gate)", "Observed": "low polyreactivity"}

---

# Assay details: yeast display, Sf9 membrane polyspecificity reagent, FACS + sequencing; frameworks hold sequencing errors
Measured metric: polyreactivity (PSR sort gate)

Consider the reported polyreactivity (PSR sort gate) for these sequences:
{"Sequence code": "QVQLVESGGGLVQAGGSLRLSCAASGRIFNQYAMGWYRQAPGKERELVAAISRRGGSTYYADSVKGRFTISRDNAKNTVYLQMNSLKPEDTAVYYCAAVGGYASYFHLYYYWGQGSQVTVSS", "polyreactivity (PSR sort gate)": "high polyreactivity"}
{"Sequence code": "QVQLVESGGGLLQAGGSLRLSCAASGSIFSYYVMGWYRQAPGKERELVAAISSSGGSTYYADSVKGRFTISRDNEKNTVYLQMNSLKPEDTAVYYCAAQHYVRSSIPGFIYYYWGQGTQVTVSS", "polyreactivity (PSR sort gate)": "high polyreactivity"}
{"Sequence code": "QVQLVESGGGLVQAGGSLRLSCAASGSTIVYYAMGWYRQAPGKERELVAAINYSSGSTYYADSVKGRFTISRDNSKNTVYLQMNSLKPEDTAVYYCATDLLYYQYYSEYDYWGQGTQVTVSS", "polyreactivity (PSR sort gate)": "high polyreactivity"}
{"Sequence code": "QVQLQESDGGLVQAGGSLRLSCAASGSISPQYYMGWYRQAPGKEREFVAISKGTTTYYADSVKGRLTISRVNAKNTVYLQMNSLKPEDTAVYCCAAVRWLQKVHAYWDQGTQVTVSS", "polyreactivity (PSR sort gate)": "low polyreactivity"}
{"Sequence code": "QVQLVESGGGLVQAGGSLRLSCAASGSTFKPNAMGWYRQAPGKERELVAAITSGSTYYADSVKGRFTISRDNAKNTVYLQMNSLKPEDTAVYYCAVVTGSFRTRYTYYYWGQGTQVTVSS", "polyreactivity (PSR sort gate)": "high polyreactivity"}
{"Sequence code": "QVQLLESGGGLVQAGGSLRLSCAASGRIFRRYAMGWYRQAPGKEREFVAAITKSGGSTYYADSVKGRFTISRDNAKNTVYLQMNSLKPEDTAVYYCATYPQYYFRYDYWGQGTQVTVSS", "polyreactivity (PSR sort gate)": "high polyreactivity"}
{"Sequence code": "QVQLVESGGGLVQAGGSLRLSCAASGRTFTGYAMGWYRQAPGKERELVAAISASGGSTYYADSVKGRFTISRDNAKNTVYLQMNSLKPEDTAVYYCAAESWYSVLWEEGYDYWGQGTQVTVSS", "polyreactivity (PSR sort gate)": "low polyreactivity"}
{"Sequence code": "QVQVVESGGGLVQAGGSLRLSCAASGRTSGNYAMGWYRQAPGKERELVAAIRYSGSSTFYADSVKGRFTISRDNAKHTVYLQMNSLKPEDTAVYYCARDIRRKGFRYDYWGQGTQVTVSS", "polyreactivity (PSR sort gate)": "high polyreactivity"}
{"Sequence code": "QVHLVESGGCLVQAGGSLRLSCAASGRTFDFYAMGWYRQAPGKERELVATITSGTSTNYADSVKGRFTISRDNAKNTVYLQMYRLKPEDTAVYYCNAGGVYPRCTFLEQGYEMDYWGQGTQVTVSS", "polyreactivity (PSR sort gate)": "low polyreactivity"}
{"Sequence code": "QVQLVESGGGLVQAGGSLRLSCAASGFTFNFYAMGWYRQAPGKERELVASITSSGARTYYADSVKGRFTISRDNAKNSVYLQMNSLKPEDTAVYYCAARVYRYSASRAYDYWGQGTQVTVSS", "polyreactivity (PSR sort gate)": "high polyreactivity"}

Give polyreactivity (PSR sort gate) for the following sequence: `QVHLVESGGGLVQAGGSLRLSCAASGLTFRYYAMGWYRPAPGKERELVAAISWSGGSTYYADSVKGRFTISRDNAKNTVYLQMNSQKPEDTAVYDCNTVGRSSSLSVFLIGYGYWGQATQVTVSS` high polyreactivity

Give polyreactivity (PSR sort gate) for the following sequence: `QVQLVETGGGLVQAGGSLRLSCAASGYTFASNDMVWYRQAPGKERELVAAITKGGGRTYYADSVKGRFTISRDNAKNTVYLQMNRLKPEDTAVYFCAARQLIKYDYCGQGTQVTVSS` low polyreactivity

Give polyreactivity (PSR sort gate) for the following sequence: `QVQLVESGGGLVQAGGSLRLSCAASGSTFDSYAMGWYRQAPGKERELVAAISTSGGSTYYADSVKGRFTISRDNAKNTVYLQMNSLKPEDTAVYYCAAYSISSRMNYWGQGSQVTVSS` high polyreactivity

Give polyreactivity (PSR sort gate) for the following sequence: `QVQLVESGGGLVQAGGSLRLSCAASGSNFDYNTMGWYRQAPGKEREFVAAISSSGGGTSYADSVKGRFTISRDNAKNTVYLQMNSLKPEDTAVYYCAALIKLTPYQRQYWKYRAYYYGGQGTQVTVSS` high polyreactivity

Give polyreactivity (PSR sort gate) for the following sequence: `QVQLVESGGGLVQAGGSLRLSCAASGSTFYVNAMGWYRQAPGKERELVAAITKSGGNTYYADSVKGRFTISRDNAKNTVYLQMNSLKPEDTAVYYCAKKYPRDMDYWGQGTQVTVSS` high polyreactivity
